Provenance of the data: patent US20250223301A1

biological target: DGKa (Homo sapiens (Human)); assay: biochemical
Sequence (P23743 whole entry): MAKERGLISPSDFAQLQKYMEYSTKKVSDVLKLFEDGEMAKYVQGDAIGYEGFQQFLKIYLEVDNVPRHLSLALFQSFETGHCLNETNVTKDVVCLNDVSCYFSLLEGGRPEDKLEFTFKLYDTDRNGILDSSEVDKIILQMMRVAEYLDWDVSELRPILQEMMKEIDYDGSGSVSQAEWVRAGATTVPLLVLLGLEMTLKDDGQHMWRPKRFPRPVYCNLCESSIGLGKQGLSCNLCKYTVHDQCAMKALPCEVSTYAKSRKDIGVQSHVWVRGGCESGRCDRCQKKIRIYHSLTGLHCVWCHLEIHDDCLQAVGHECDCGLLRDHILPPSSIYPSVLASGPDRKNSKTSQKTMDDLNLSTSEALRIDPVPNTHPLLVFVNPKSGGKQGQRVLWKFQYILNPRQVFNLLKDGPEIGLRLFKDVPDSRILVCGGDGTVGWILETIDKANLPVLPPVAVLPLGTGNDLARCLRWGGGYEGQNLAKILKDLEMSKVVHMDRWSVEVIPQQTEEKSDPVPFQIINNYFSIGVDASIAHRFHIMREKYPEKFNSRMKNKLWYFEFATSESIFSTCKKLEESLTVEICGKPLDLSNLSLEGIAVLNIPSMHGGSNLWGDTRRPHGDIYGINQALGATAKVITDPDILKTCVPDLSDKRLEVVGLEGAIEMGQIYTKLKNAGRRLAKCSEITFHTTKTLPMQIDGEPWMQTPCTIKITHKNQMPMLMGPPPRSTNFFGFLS
observable: IC50 (nM)
Report only the number, with the unit nM understood.

> print(dat)
                                   molecule  observable  unitabbrev  observed
1  CC[C@@H]1CN2c3c(c(=O)n(C)c4ccc(C#N)nc34)OC[C@@H]2CN1[C@H](CC)c1ccc(SC(F)(F)F)cc1 [Compound 124]        IC50          nM         6

Record CC[C@H]1CN([C@H](CC)c2ccc(S(F)(F)(F)(F)F)cc2)[C@H](CC)CN1c1nc(=O)n(C)c2ccc(C#N)nc12 [Compound 29] . Reported IC50: 14

# IC50 of CC[C@H]1CN([C@H](CC)c2ccc(SC(F)(F)F)cc2)[C@H](CC)CN1c1nc2nncn2c2ccc(C#N)nc12 (stereo in doubt) [Compound 69] = 10

The molecule identified as CC[C@H]1CN([C@@H](CC)c2ccc(C(F)(F)F)nc2)[C@H](CC)CN1c1nc2nncn2c2ccc(C#N)nc12 (stereo in doubt) [Compound 111] registered its IC50 at 7

---

The entries below come with measured EC50 values attached.
system: PBMC; assay: Human PBMC IL-2 assay; type: cell-based; details: anti-CD3/CD28 stimulation overnight, IL-2 level
Report only the number, with the unit nM understood.

The cases that follow already have their EC50 on record.
> print(dat)
                                   molecule  observed
1  CC[C@@H]1CN2c3c(c(=O)n(C)c4ccc(C#N)nc34)OC[C@@H]2CN1[C@@H](CC)c1ccc(S(F)(F)(F)(F)F)cc1 (stereo in doubt)        82
2  CC[C@@H](c1ccc(F)c(Cl)c1)N1C[C@H]2COc3c(c4nc(C#N)ccc4n(C)c3=O)N2C[C@H]1C (stereo in doubt)        78

Record for CC[C@@H]1CN2c3c(c(=O)n(C)c4ccc(C#N)nc34)OC[C@@H]2CN1[C@H](CO)c1ccc(C(F)(F)F)cc1 (stereo in doubt) under target or system PBMC: EC50 reported as 583

---

target: DGKa (Homo sapiens (Human)); test: biochemical;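 note: biochemical DGK kinase assay, ADP-Glo luminescence from ADP made by phosphorylating 1,2-dioleoyl-sn-glycerol, 20 min compound preincubation then 40 min reaction at 25 °C, 1% DMSO control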
observable: pIC50
The read-out pIC50 is expressed as -log10 of concentration in moles per litre.

Value (pIC50, DGKa (Homo sapiens (Human))) for record CC[C@@H]1CN(c2nc(=O)n(C)c3ccc(C#N)nc23)[C@@H](C)CN1[C@@H](CC)c1ccc(S(F)(F)(F)(F)F)cc1 (stereo in doubt) [Compound 60] = 7.08

Reported DGKa (Homo sapiens (Human)) pIC50 for item CC[C@@H]1CN(c2nc3nncn3c3ccc(C#N)nc23)[C@@H](CC)CN1C(=O)c1ccc(C(F)(F)F)cc1 [Compound 84] was 8.05

Record for CC[C@H]1CN([C@@H](c2ccc(SC(F)(F)F)cc2)c2nc(C3CC3)cs2)[C@H](CC)CN1c1nc(=O)n(C)c2ccc(C#N)nc12 [Compound 58] under target or system DGKa (Homo sapiens (Human)): pIC50 reported as 8.05

---

test: Human microsomal clearance assay; type: in vitro ADME; settings: human, liver microsomes, pH 7.4
observable: CLint scaled at 1 μM (mL/min/kg)
Answer format: numeric, mL/min/kg implied, no suffix.

Worked examples, 4 molecules total:
> print(dat)
                                   molecule  observed
1  Cn1c(=O)nc(N2CCC3(CC2)COC(c2ccc(OC(F)(F)F)cc2)=N3)c2nc(C#N)ccc21       2.7
2  CC[C@@H]1CN2c3c(c(=O)n(C)c4ccc(C#N)nc34)CC[C@@H]2CN1[C@H](CC)c1ccc(C(F)(F)F)cc1       6.9
3  Cn1c(=O)nc(N2CCC3(CC2)CC(c2ccc(OC(F)(F)F)cc2)=NO3)c2nc(C#N)ccc21       5.1
4  CC[C@@H]1CN2c3c(c(=O)n(C)c4ccc(C#N)nc34)OC[C@@H]2CN1[C@@H](CC)c1ccc(S(F)(F)(F)(F)F)cc1 (stereo in doubt)       4.1

Please fill in: CLint scaled at 1 μM reported for CC[C@@H]1CN2c3c(c(=O)n(C)c4ccc(C#N)nc34)OC[C@@H]2CN1[C@@H](CC)c1ccc(Cl)c(Cl)c1 (stereo in doubt) = 12.3

---

system: PBMC; experiment: Human PBMC IL-2 assay; type: cell-based; details: anti-CD3/CD28 stimulation overnight, IL-2 level
pEC50: −log10 of the molar value.
Category | rule: reported pEC50 within range, see low class: < 6; middle class: ≥ 6 and < 7; high class: ≥ 7

> print(dat)
                                   compound    labelvalue
1  CCC[C@@H]1CN2c3c(c(=O)n(C)c4ccc(C#N)nc34)OC[C@@H]2CN1[C@H](C)c1ccc(C(F)(F)F)cc1 (stereo in doubt)  middle class
2  CC[C@@H]1CN2c3c(c(=O)n(C)c4ccc(C#N)nc34)OC[C@@H]2CN1[C@H](CC)c1ccc(C(F)(F)F)cc1F (stereo in doubt)  middle class

Hi, small favor: classify CC[C@H]1CN([C@H](CC)c2ccc(F)cc2F)[C@H](CC)CN1c1nc2nncn2c2ccc(C#N)nc12 (stereo in doubt) by its pEC50 when you get a moment. low class

---

system: PBMC; test: Human PBMC IL-2 assay; assay type: cell-based; conditions: anti-CD3/CD28 stimulation overnight, IL-2 level
observable: EC50

// solved cases for EC50 follow
> print(dat)
                                   molecule  observed
1  CC[C@@H]1CN2c3c(c(=O)n(C)c4ccc(C#N)nc34)OC[C@@H]2CN1[C@@H](CC)c1c(F)ccc(F)c1F (stereo in doubt)    186 nM
2  CC[C@@H]1CN2c3c(c(=O)n(C)c4ccc(C#N)nc34)OC[C@@H]2CN1[C@@H](CC)c1c(Cl)cccc1Cl (stereo in doubt)    109 nM
3  CC[C@@H]1CN2c3c(c(=O)n(C)c4ccc(C#N)nc34)N(C)C[C@@H]2CN1[C@@H](CC)c1ccc(C(F)(F)F)cc1    624 nM
4  C[C@@H]1CN2c3c(c(=O)n(C)c4ccc(C#N)nc34)OC[C@@H]2CN1[C@H](C)c1ccc(F)c(Cl)c1 (stereo in doubt)   1880 nM
5  CC[C@H]1CN([C@@H](CC)c2nc(C(F)(F)F)no2)[C@H](CC)CN1c1nc2nncn2c2ccc(C#N)nc12 (stereo in doubt)     69 nM

Sample CC[C@@H]1CN2c3c(c(=O)n(C)c4ccc(C#N)nc34)OC[C@@H]2CN1[C@@H](CC)c1ccc(F)c(Cl)c1 (stereo in doubt) , system: PBMC. Its EC50 is 78 nM

Measured on PBMC, CC[C@@H]1CN2c3c(c(=O)n(C)c4ccc(C#N)nc34)OC[C@@H]2CN1[C@H](c1ccc(F)cc1)c1nc(C2CC2)no1 (stereo in doubt) has a documented EC50 of 75 nM

Kindly note: PBMC, `CC[C@@H]1CN2c3c(c(=O)n(C)c4ccc(C#N)nc34)N(C)C[C@@H]2CN1[C@H](CC)c1ccc(C(F)(F)F)cc1` , EC50 value reported: 3840 nM

# CC[C@H]1CN([C@@H](CC)c2ccc(C(F)(F)F)cc2C)[C@H](CC)CN1c1nc2nncn2c2ccc(C#N)nc12 (stereo in doubt) with PBMC: EC50 is 96 nM

Tested on PBMC, the item `C[C@H]1c2cccc(-c3ccc(C(F)(F)F)cc3)c2CCN1c1nc(=O)n(C)c2ccc(C#N)nc12` showed EC50 equal to 1100 nM

---

Each record here notes measured pEC50.
tested on: PBMC; assay: Human PBMC IL-2 assay; format: cell-based; conditions: anti-CD3/CD28 stimulation overnight, IL-2 level
// pEC50: -log10(molar conc.)

Use the examples below as a reference point.
> print(dat)
                                   compound  targetorsystem  observed
1  Cn1c(=O)c2c(c3nc(C#N)ccc31)N1CC[C@@H](Oc3ccc(C(F)(F)F)cc3)C[C@H]1CO2 [Compound 325]            PBMC      6.25
2  CC[C@@H]1CN2c3c(c(=O)n(C)c4ccc(C#N)nc34)OC[C@@H]2CN1[C@H](c1ccc(C(F)(F)F)cc1)C1CC1 [Compound 347]            PBMC      7.89
3  CC[C@@H]1CN2c3c(c(=O)n(C)c4ccc(C#N)nc34)OC[C@@H]2CN1[C@@H](c1ccc(C(F)(F)F)cc1)C1CC1 [Compound 346]            PBMC      6.86
4  CC[C@@H](c1ccc(Cl)c(F)c1)N1C[C@H]2COc3c(c4nc(C#N)ccc4n(C)c3=O)N2C[C@H]1C (stereo in doubt) [Compound 281]            PBMC      7.31
5  CC[C@@H]1CN2c3c(c(=O)n(C)c4ccc(C#N)nc34)OC[C@@H]2CN1[C@@H](CC)c1ccc(C(F)(F)F)c(F)c1 (stereo in doubt) [Compound 319]            PBMC      6.55

// sample CC[C@@H]1CN2c3c(c(=O)n(C)c4ccc(C#N)nc34)OC[C@@H]2CN1[C@@H](CC)c1ccc(Cl)c(Cl)c1 (stereo in doubt) [Compound 250] , its pEC50 was 7.80

Record summary for CC[C@@H]1CN2c3c(c(=O)[nH]c4ccc(C#N)nc34)OC[C@@H]2CN1[C@@H](CC)c1ccc(C(F)(F)F)cc1 [Compound 252] : reported pEC50 = 6.97

Entry CCC[C@@H]1CN2c3c(c(=O)n(C)c4ccc(C#N)nc34)OC[C@@H]2CN1[C@@H](C)c1ccc(OCC2CC2)cc1F (stereo in doubt) [Compound 163] ; pEC50 = 6.47

Form: compound = C[C@@H]1CN2c3c(c(=O)n(C)c4ccc(C#N)nc34)OC[C@@H]2CN1[C@@H](C)c1ccc(C(C)(F)F)cc1 (stereo in doubt) [Compound 304] ; pEC50 = 7.62

Reported pEC50 ( CC[C@@H]1CN2c3c(c(=O)n(C)c4ccc(C#N)nc34)OC[C@@H]2CN1[C@@H](CC)c1ccc(C#N)cc1 (stereo in doubt) [Compound 161] ) = 7.28

Note to self: pEC50 recorded for CC[C@@H]1CN2c3c(c(=O)n(C)c4ccc(C#N)nc34)OC[C@@H]2CN1[C@@H](CC)c1ccc(C(F)F)cc1 (stereo in doubt) [Compound 291] was 7.96

Looking up CCC[C@@H](c1ccc(C(F)(F)F)cc1)N1C[C@H]2COc3c(c4nc(C#N)ccc4n(C)c3=O)N2C[C@H]1CC (stereo in doubt) [Compound 153] , I found its pEC50 recorded as 7.07
